- assayed system: M4 muscarinic receptor (Homo sapiens)
- Construct: expressed in transfected cells; host or cells: CHO (M4-CHO)
- Sequence (P08173 whole entry): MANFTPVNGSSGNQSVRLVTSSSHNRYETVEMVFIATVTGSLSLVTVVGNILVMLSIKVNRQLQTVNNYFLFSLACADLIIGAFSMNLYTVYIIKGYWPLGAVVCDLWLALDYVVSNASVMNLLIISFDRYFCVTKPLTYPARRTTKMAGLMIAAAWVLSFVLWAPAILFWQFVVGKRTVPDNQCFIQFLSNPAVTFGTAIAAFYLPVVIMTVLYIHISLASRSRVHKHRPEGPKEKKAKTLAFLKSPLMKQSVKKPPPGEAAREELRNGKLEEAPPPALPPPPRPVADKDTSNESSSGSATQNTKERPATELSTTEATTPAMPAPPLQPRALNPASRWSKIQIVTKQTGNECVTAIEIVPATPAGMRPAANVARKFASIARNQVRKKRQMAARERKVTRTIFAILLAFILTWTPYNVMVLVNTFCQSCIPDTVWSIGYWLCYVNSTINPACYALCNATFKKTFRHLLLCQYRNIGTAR
- assay protocol: Functional mobilization of intracellular calcium (FLIPR), M4-CHO cells
- Assay type: cell-based
- experimental context: 100% efficacy is the maximum response obtained using Carbachol as a control
measure name: Emax

Below: 6 compounds and their reported Emax.
• CC(=O)N1Cc2ccccc2C2(CCN(Cc3cc(C)c(C)o3)CC2)C1 = < 25%
• C#CCOC(=O)N1C2CCC1CC(N1CCC3(CC1)CN(C(C)=O)Cc1ccccc13)C2 (centres unmarked) = 25 to 100%
• CC(C)(C)CCN1CCC2(CC1)NC(=O)c1ccccc12 = 25 to 100%
• CCCOC(=O)N1C2CCC1CC(N1CCC3(CC1)CN(S(=O)(=O)CCC)Cc1ccccc13)C2 (centres unmarked) = 25 to 100%
• CCCOC(=O)N1CC(CN2CCC3(CC2)CN(C(C)=O)Cc2ccccc23)C1 = < 25%
• CCOC(=O)N1C2CCC1CC(N1CCC3(CC1)CN(C(=O)C(O)(CC)CC)Cc1ccccc13)C2 (centres unmarked) = 25 to 100%

Exam item: If you can, please state the reported Emax value of CCCCNC(=O)N1Cc2ccccc2C2(CCN(C3CCN(C(=O)OCC)CC3)CC2)C1 .
Marked response: 25 to 100%

Exam item: Same question for CC(=O)N1Cc2ccccc2C2(CCN(CC3CCCCO3)CC2)C1 (centres unmarked) please.
Marked response: < 25%

Exam item: Same question for COCCOC(=O)N1CCC(CN2CCC3(CC2)CN(C(C)=O)Cc2ccccc23)CC1 please.
Marked response: 25 to 100%

###

The entries below come with measured Emax values attached.
- assayed system: M1 muscarinic receptor (Homo sapiens)
- Construct: expressed in transfected cells; host or cells: CHO (M1-CHO)
- Sequence (P11229 1-460): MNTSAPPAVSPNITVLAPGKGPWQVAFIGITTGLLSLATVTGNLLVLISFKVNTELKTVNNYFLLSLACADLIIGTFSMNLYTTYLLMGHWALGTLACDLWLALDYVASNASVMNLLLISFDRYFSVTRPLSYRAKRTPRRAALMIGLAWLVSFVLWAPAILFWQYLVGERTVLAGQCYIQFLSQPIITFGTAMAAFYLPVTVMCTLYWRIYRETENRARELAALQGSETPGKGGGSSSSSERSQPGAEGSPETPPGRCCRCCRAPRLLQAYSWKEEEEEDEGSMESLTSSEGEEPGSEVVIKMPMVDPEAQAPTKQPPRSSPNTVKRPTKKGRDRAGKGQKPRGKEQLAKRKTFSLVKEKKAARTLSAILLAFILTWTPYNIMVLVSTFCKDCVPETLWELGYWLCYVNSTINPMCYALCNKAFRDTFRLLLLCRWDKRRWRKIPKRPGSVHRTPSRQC
- assay protocol: Functional mobilization of intracellular calcium (FLIPR), M1-CHO cells
- Type: cell-based
- experimental context: 100% efficacy is the maximum response obtained using Carbachol as a control

• CCOC(=O)N1C2CCC1CC(N1CCC3(CC1)CN(S(=O)(=O)c1ccc(C)cc1)Cc1ccccc13)C2 (stereo not shown) [compound 18] = 25 to 100%
• CCOc1ccc(CN2CCC3(CC2)CN(C(C)=O)Cc2ccccc23)cc1 [compound 137] = < 25%

Exam item: If you can, please state the reported Emax value of CC(=O)N1Cc2ccccc2C2(CCN(Cc3cccc(C)n3)CC2)C1 [compound 334] .
Marked response: < 25%

Exam item: Same question for CCOC(=O)N1C2CCC1CC(N1CCC3(CC1)CN(C(=O)OC(C)C)Cc1ccccc13)C2 (stereo not shown) [compound 8] please.
Marked response: 25 to 100%

Exam item: Same question for CCOC(=O)N1CC(CN2CCC3(CC2)CN(C(C)=O)Cc2ccccc23)C1 [compound 1] please.
Marked response: 25 to 100%

###

The entries below come with measured Emax values attached.
- assayed system: M4 muscarinic receptor (Homo sapiens)
- Construct: expressed in transfected cells; host or cells: CHO (M4-CHO)
- assay protocol: Functional mobilization of intracellular calcium (FLIPR), M4-CHO cells
- Format: cell-based
- experimental context: 100% efficacy is the maximum response obtained using Carbachol as a control
Structures can show the parent of a compound that is named as a salt.

Below: 4 compounds and their reported Emax.
- CCOC(=O)N1CCC(CN2CCC3(CC2)CN(C(=O)c2ccccc2)Cc2ccccc23)CC1 [compound 147, hydrochloride]: 25 to 100%
- CCOC(=O)N1C2CCC1CC(N1CCC3(CC1)CN(C(=O)CC(C)(C)C)Cc1ccccc13)C2 (stereo not shown): 25 to 100%
- CC(=O)N1Cc2ccccc2C2(CCN(CC3CCCCC3)CC2)C1: < 25%
- CC(=O)N1Cc2ccccc2C2(CCN(Cc3ccc4c(c3)CCO4)CC2)C1: < 25%

Exam item: If you can, please state the reported Emax value of CC(=O)Oc1cccc(CN2CCC3(CC2)CN(C(C)=O)Cc2ccccc23)c1 .
Marked response: < 25%

Exam item: Same question for CCOC(=O)N1CCC(N2CCC3(CC2)CN(C2CCCCC2C)Cc2ccccc23)CC1 (stereo not shown) please.
Marked response: 25 to 100%

Exam item: Same question for COCCOC(=O)N1Cc2ccccc2C2(CCN(C3CC4CCC(C3)N4C(=O)OCCOC)CC2)C1 (stereo not shown) please.
Marked response: 25 to 100%

Exam item: Same question for CCOC(=O)N1CCC(N2CCC3(CC2)CN(S(=O)(=O)c2ccc(F)cc2)Cc2ccccc23)CC1 please.
Marked response: 25 to 100%

###

The entries below come with measured Emax values attached.
- assayed system: M4 muscarinic receptor (Homo sapiens)
- Construct: expressed in transfected cells; host or cells: CHO (M4-CHO)
- assay protocol: Functional mobilization of intracellular calcium (FLIPR), M4-CHO cells
- Assay type: cell-based
- experimental context: 100% efficacy is the maximum response obtained using Carbachol as a control

Exam item: If you can, please state the reported Emax value of CCOC(=O)N1CCC(CN2CCC3(CC2)CN(C(=O)OCCOC)Cc2ccccc23)CC1 [compound 22] .
Marked response: 25 to 100%

###

The entries below come with measured Emax values attached.
- assayed system: M1 muscarinic receptor (Homo sapiens, UniProt P11229)
- Construct: expressed in transfected cells; host or cells: CHO (M1-CHO)
- assay protocol: Functional mobilization of intracellular calcium (FLIPR), M1-CHO cells
- Format: cell-based
- experimental context: 100% efficacy is the maximum response obtained using Carbachol as a control

Below: 5 molecules and their reported Emax.
- CCOC(=O)N1C2CCC1CC(N1CCC3(CC1)CN(C(=O)NC(C)C)Cc1ccccc13)C2 (centres unmarked): 25 to 100%
- CC(=O)N1Cc2ccccc2C2(CCN(CC3CC4CCC3CC4)CC2)C1 (centres unmarked): 25 to 100%
- CCOC(=O)N1CCC(N2CCC3(CC2)CN(C(=O)NC2CCCCC2)Cc2ccccc23)CC1: 25 to 100%
- COCCOC(=O)N1C2CCC1CC(N1CCC3(CC1)CN(C(C)=O)Cc1ccccc13)C2 (centres unmarked): 25 to 100%
- CCCOC(=O)N1C2CCC1CC(N1CCC3(CC1)CN(C(=O)OC1CCC1)Cc1ccccc13)C2 (centres unmarked): 25 to 100%

Exam item: If you can, please state the reported Emax value of CCOC(=O)N1C2CCC1CC(N1CCC3(CC1)CN(C(=O)C(O)(CC)CC)Cc1ccccc13)C2 (centres unmarked) .
Marked response: 25 to 100%

Exam item: Same question for CC(=O)N1Cc2ccccc2C2(CCN(Cc3ccccc3F)CC2)C1 please.
Marked response: < 25%

Exam item: Same question for COC(=O)N1CCC(N2CCC3(CC2)CN(C(C)=O)Cc2ccccc23)CC1 please.
Marked response: 25 to 100%

Exam item: Same question for COC(=O)N1CC(CN2CCC3(CC2)CN(C(C)=O)Cc2ccccc23)C1 please.
Marked response: < 25%

Exam item: Same question for CCOC(=O)N1CCC(CN2CCC3(CC2)CN(C(=O)c2ccccn2)Cc2ccccc23)CC1 please.
Marked response: 25 to 100%

Exam item: Same question for CC(C)(C)CCN1CCC2(CC1)NC(=O)c1ccccc12 please.
Marked response: 25 to 100%

Exam item: Same question for CCOC(=O)N1C2CCC1CC(N1CCC3(CC1)CN(c1cccc(F)c1)Cc1ccccc13)C2 (centres unmarked) please.
Marked response: > 100%

Exam item: Same question for CC(=O)N1Cc2ccccc2C2(CCN(C3CCC(=O)CC3)CC2)C1 please.
Marked response: 25 to 100%

Exam item: Same question for CCOC(=O)N1C2CCC1CC(N1CCC3(CC1)CN(S(=O)(=O)c1cccs1)Cc1ccccc13)C2 (centres unmarked) please.
Marked response: 25 to 100%

###

- assayed system: M4 muscarinic receptor (Homo sapiens)
- Construct: expressed in transfected cells; host or cells: CHO (M4-CHO)
- assay protocol: Functional mobilization of intracellular calcium (FLIPR), M4-CHO cells
- Format: cell-based
- experimental context: 100% efficacy is the maximum response obtained using Carbachol as a control
The entries below come with measured Emax values attached.

Below: 5 molecules and their reported Emax.
- O=C(OC1CCC1)N1Cc2ccccc2C2(CCN(C3CC4CCC(C3)N4C(=O)O[C@H]3CCOC3)CC2)C1 (some centres unmarked): 25 to 100%
- CCOC(=O)N1C2CCC1CC(N1CCC3(CC1)CN(S(=O)(=O)c1ccccc1Cl)Cc1ccccc13)C2 (centres unmarked): 25 to 100%
- CCOC(=O)N1C2CCC1CC(N1CCC3(CC1)CN(C(=O)C1(C(F)(F)F)CC1)Cc1ccccc13)C2 (centres unmarked): 25 to 100%
- CC(=O)N1Cc2ccccc2C2(CCN(Cc3ccccc3Cl)CC2)C1: 25 to 100%
- COCCOC(=O)N1C2CCC1CC(N1CCC3(CC1)CN(S(=O)(=O)N(C)C)Cc1ccccc13)C2 (centres unmarked): 25 to 100%

Exam item: If you can, please state the reported Emax value of CC(=O)N1Cc2ccccc2C2(CCN(Cc3sccc3C)CC2)C1 .
Marked response: < 25%

Exam item: Same question for COc1ccc(CN2CCC3(CC2)CN(C(C)=O)Cc2ccccc23)cn1 please.
Marked response: < 25%

Exam item: Same question for CCOC(=O)N1C2CCC1CC(N1CCC3(CC1)CN(C(=O)c1cc(C)oc1C)Cc1ccccc13)C2 (centres unmarked) please.
Marked response: 25 to 100%
